Kindly state kon for each of the entries shown.
# MEASUREMENT_TARGET: T1, MCL-1 (mouse, residues 152-308) (mouse)
# T1 construct: remnant of thrombin cleavage at the N-terminus of MCL-1; MCL-1, mouse, residues 152-308, UniProt P97287; source: E. coli C41 pLysS, purified (Ni2+ agarose, thrombin cleavage, ion exchange, Superdex G75 gel filtration); not shown: His6, N-terminal, cleaved
# T1 chain: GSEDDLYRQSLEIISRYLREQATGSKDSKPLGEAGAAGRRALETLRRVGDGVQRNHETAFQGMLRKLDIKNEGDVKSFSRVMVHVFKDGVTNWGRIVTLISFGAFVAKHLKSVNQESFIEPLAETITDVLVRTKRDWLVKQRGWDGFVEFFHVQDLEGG
# ASSAY_PROTOCOL: stopped-flow fluorescence kinetics; association; TAMRA-labelled peptide with folded partner at least 10-fold higher (pseudo-first-order); kon from the gradient of kobs versus partner concentration; 25 °C; 50 mM sodium phosphate, 0.05% (v/v) Tween 20, pH 7.0
# EXPERIMENTAL_PARAMETERS: both partners purified
Where no end group is shown, it is not given here. The star is where a group is joined. TAMRA = 5-carboxytetramethylrhodamine, CN(C)c1ccc2c(-c3ccc(C(=O)*)cc3C(=O)[O-])c3ccc(=[N+](C)C)cc-3oc2c1
Give the value in M⁻¹ s⁻¹ but do not write M⁻¹ s⁻¹ after it.

Task item: Given the entry {TAMRA}-SESQEEIIHNIARHLAQIGDEMDHNAQPTLVRQLA (peptide, UniProt P70444 76-110, looked up, BID, mouse, residues 76-110, UniProt P70444; source: synthetic peptide (Biomatik)) [BID I101A peptide, TAMRA-labelled] , report its measured kon.
Reply: 8.2e+06

Task item: Param item: {TAMRA}-SESQEEIIHNIARHLAQIGDEMDHNIQPTLVRQLA (BID, mouse, residues 76-110, UniProt P70444; also called WT; source: synthetic peptide (Biomatik)) [BID peptide (mouse, residues 76-110), TAMRA-labelled]
Reply: 8.9e+06

Task item: Param item: {TAMRA}-SESQEEIIHNAARHLAQIGDEADHNIQPTLVRQLA (peptide, UniProt P70444 76-110, looked up, BID, mouse, residues 76-110, UniProt P70444; source: synthetic peptide (Biomatik)) [BID I86A-M97A peptide, TAMRA-labelled]
Reply: 3.5e+06

Task item: Param item: {TAMRA}-SESQEGIIHNIARHLAQIGDEMDHNIQPTLVRQLA (peptide, UniProt P70444 76-110, looked up, BID, mouse, residues 76-110, UniProt P70444; source: synthetic peptide (Biomatik)) [BID E81G peptide, TAMRA-labelled]
Reply: 4.8e+06

Task item: Param item: {TAMRA}-SESQEEIIHNIARHLAQIGDEMDGNIQPTLVRQLA (peptide, UniProt P70444 76-110, looked up, BID, mouse, residues 76-110, UniProt P70444; source: synthetic peptide (Biomatik)) [BID H99G peptide, TAMRA-labelled]
Reply: 9e+06

Task item: Param item: {TAMRA}-SESQEEIIHNIAAHLAQIGDEMDHNIQPTLVRQLA (peptide, UniProt P70444 76-110, looked up, BID, mouse, residues 76-110, UniProt P70444; source: synthetic peptide (Biomatik)) [BID R88A peptide, TAMRA-labelled]
Reply: 1e+07
